- tested.target: Nuclear receptor ROR-gamma (Mus musculus) (UniProt P51450)
- Sequence (P51450 whole entry, looked up): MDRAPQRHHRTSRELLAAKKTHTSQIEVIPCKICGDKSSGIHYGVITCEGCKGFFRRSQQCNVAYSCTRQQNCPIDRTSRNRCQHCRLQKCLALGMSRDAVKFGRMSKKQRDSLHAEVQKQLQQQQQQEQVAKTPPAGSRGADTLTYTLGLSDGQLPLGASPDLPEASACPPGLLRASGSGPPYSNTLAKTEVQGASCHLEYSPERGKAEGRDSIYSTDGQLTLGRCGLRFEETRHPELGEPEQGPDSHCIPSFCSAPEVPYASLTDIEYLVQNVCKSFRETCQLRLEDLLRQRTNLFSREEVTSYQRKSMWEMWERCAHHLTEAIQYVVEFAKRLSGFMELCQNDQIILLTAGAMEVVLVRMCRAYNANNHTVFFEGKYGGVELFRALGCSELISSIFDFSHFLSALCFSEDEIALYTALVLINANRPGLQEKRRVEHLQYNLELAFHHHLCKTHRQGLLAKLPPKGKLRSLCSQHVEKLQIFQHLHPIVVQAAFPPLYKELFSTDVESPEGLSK
- assay.text: qHTS for inhibitors of ROR gamma transcriptional activity; note: nearly all actives have a fitted effect of over 60% in size
- test.conditions: Drosophila S2 Gal4-RORgamma UAS-luciferase reporter, 20 h; series mostly up to 53.6 µM
Hit rate of the full screen: of about 310,000 compounds, about 17,000 (5.5%) were called active. Not shown: some 11% with an inconclusive outcome. This is one part of a sample in which actives are shown more often than they occur.

- smiles.str: "C=CCn1c(CNS(=O)(=O)c2ccc(Br)cc2)nnc1SC"
  outcome: "inactive"
- smiles.str: "CC(=O)N(CCCN(C)C)c1nc2ccc(C)cc2s1"
  outcome: "inactive"
- smiles.str: "O=S(=O)(c1ccc(F)cc1)N1CCN=C1SCc1cccc(F)c1"
  outcome: "inactive"

The reported measurements were obtained from PubChem BioAssay AID2551.
